- ASSAY PROTOCOL: Mycobacterium tuberculosis growth inhibition, primary screen (AID 1259343)
- RUN PARAMETERS: at 10 µM, active compounds read high
The campaign covered roughly 6,200 compounds. About 2,900 (47%) were called active. So high a share suggests a set chosen from earlier hits. The list shows a part of the results.
MEASURED ENDPOINT: inhibition (%)

- COc1cc(C(=O)N2CCOC(COc3ccc(C)cc3)C2)cc(Cl)n1 (stereo unspecified): 29.3
- Cc1cc(NC(=O)c2cccc(F)c2)n(-c2nc3c(c(=O)[nH]2)CCC3)n1: 101
- Clc1ccc(C2CC(c3ccc(Cl)cc3)n3nnnc3N2)cc1 (stereo unspecified): 66.5
- Fc1ccccc1Nc1nc(COc2cccc(Cl)c2)cs1: 75.5
- C=CCNC(=S)NN=C1CCC=C1CCCCC: 21.5
- COC(=O)c1ccc(Nc2ccc(OCC3CCCO3)cc2)nn1 (stereo unspecified): 93.6

----------
- ASSAY PROTOCOL: Mycobacterium tuberculosis growth inhibition, primary screen (AID 1259343)
- RUN PARAMETERS: at 10 µM, active compounds read high
Out of some 6,200 compounds screened, about 2,900 (47%) were called active. So high a share suggests a set chosen from earlier hits. The list shows a part of the results.
MEASURED ENDPOINT: inhibition (%)

* CC(Cc1cccnc1)NCc1nc(Cc2ccccc2F)no1 (configuration not stated) | 33.9
* O=S(=O)(Nc1ccc(Br)cc1)c1ccc(Cl)s1 | 95.3
* FC(F)Sc1ccc(NC(=S)NN2CCCCC2)cc1 | 28.6
* O=C(Nc1ccc(SC(F)F)cc1)c1ccc(-n2cncn2)cc1 | 52.4
* CC(C)(C)c1csc(NC(=O)c2ccc(Cl)s2)n1 | -24
* CC(C)Cc1noc(-c2ccc(-c3ccc4c(c3)OCCO4)nc2)n1 | 3.86
* O=S(=O)(Nc1ccc(Br)cc1)c1ccc(Br)s1 | 96.8
* O=C(Nc1ccc(Oc2cccnc2)cc1)C1CCN(C/C=C/c2ccccc2)CC1 | 28.8
* CC(C)(C)c1csc(NC(=O)CC2OCCc3ccsc32)n1 (configuration not stated) | 22.8
* CC(C)(C)c1csc(NC(=O)C23CC4CC(CC(C4)C2)C3)n1 | 61.1
* CC(Cc1ccccc1F)NCc1noc(-c2ccc3c(c2)OCO3)n1 (configuration not stated) | 59.5
* O=S(=O)(Nc1ccc(Cl)cc1)c1ccc(Cl)s1 | -18.5

----------
- ASSAY PROTOCOL: Mycobacterium tuberculosis growth inhibition, primary screen (AID 1259343)
- RUN PARAMETERS: at 10 µM, active compounds read high
Among all 6,200 compounds or so, about 2,900 (47%) were called active. The set was probably picked from earlier hits. This is one part of the list.
The entries below are paired with their reported inhibition.
MEASURED ENDPOINT: inhibition (%)

* C=CCNC(=S)Nc1ccc(Cl)cc1Cl | 4.42
* O=C(NN=CC(Br)=Cc1ccccc1)c1cnccn1 | -13.9
* CN(Cc1csc(-c2cccs2)n1)c1ccc(-c2nccn2C)nn1 | 68.3
* Cc1ccc(C(=O)Cn2nnc(-c3ccccc3C)n2)c(C)c1 | 90.1
* N#Cc1cc(F)c(NCc2ccc(F)cc2)c(F)c1 | 69.3
* S=C(NCC1CCCCC1)Nc1ccccc1Cl | 89.6
* c1cnc(N2CCN(Cc3csc(-c4cccs4)n3)CC2)nc1 | 40.8
* O=S(=O)(NCCCCOc1ccc(Cl)cc1)c1cccc(F)c1 | 88.5
* Cc1cc(-c2n[nH]c(=S)o2)c(C)n1-c1ccccc1 | 70.3
* Cc1ccc(CN2CCN(N=CC(Br)=Cc3ccccc3)CC2)c(C)c1 | 98.3
* Cc1ccccc1-c1nnn(Cc2cc(=O)n3c(C)cccc3n2)n1 | 32.9
* N#Cc1ccc(CNc2ccc(F)cc2Cl)cc1 | -56.2

----------
- ASSAY PROTOCOL: Mycobacterium tuberculosis growth inhibition, primary screen (AID 1259343)
- RUN PARAMETERS: at 10 µM
The campaign covered roughly 6,200 compounds. About 2,900 (47%) were called active. No stated cut-off is given here; in the data, active means inhibition above about 50%; inactive means the rest. The set was probably picked from earlier hits. Some of the results follow.
Outcomes: 1.0 for active, 0.0 for inactive

• O=C(Nc1ccccc1Cl)c1csc2c1CCCC2 = 0.0
• CCNC(=O)c1cc(Oc2ccc(C)cc2Br)ccn1 = 1.0
• NC(=O)c1c(NC(=O)CC23CC4CC(CC(C4)C2)C3)sc2c1CCC2 = 1.0
• COC(=O)c1c(NC(=O)c2ccccc2Cl)sc2c1CCCC2 = 1.0
• O=C(O)c1c(NC(=O)C2CCCCC2)sc2c1CCC2 = 1.0
• c1cncc(-c2nc(N3CCCC4CCCCC43)c3ccccc3n2)c1 (configuration not stated) = 0.0
• CCc1ccc(C2C=C(c3ccc(F)cc3)Nc3nnnn32)cc1 (configuration not stated) = 1.0
• NC(=O)c1c(NC(=O)C2CCCCC2)sc2c1CCCC2 = 0.0
• C=CS(=O)(=O)Oc1ccccc1 = 1.0
• Cc1c(O)cccc1C(=O)NC1CC(=O)N(CC2CCCCC2)C1 (configuration not stated) = 0.0
• c1ccc(-c2cc(NC3CCCC3)nc3ccccc23)cc1 = 1.0
• O=C(Nc1ccccc1)c1cc(C2CCCN(C(=O)C/C=C/c3ccccc3)C2)on1 (configuration not stated) = 0.0

----------
- ASSAY PROTOCOL: Mycobacterium tuberculosis growth inhibition, primary screen (AID 1259343)
- RUN PARAMETERS: at 10 µM
In all, about 6,200 compounds went through this assay and about 2,900 (47%) were called active. No stated cut-off is given here; in the data, active means inhibition above about 50%; inactive means the rest. So high a share suggests a set chosen from earlier hits. Some of the results follow.
Outcomes: active, inactive

* C(=NNc1ccccc1)c1c[nH]c2ccccc12 | active
* FC(F)(F)c1ccc(C2C=C(c3cccs3)Nc3nnnn32)cc1 (stereo not drawn) | active
* O=S(=O)(Nc1nc2ccccc2s1)c1ccccc1 | active
* Fc1c(F)c(F)c(Cn2nnc(-c3ccccc3)n2)c(F)c1F | inactive
* CCc1cc(=O)[nH]c(-n2nc(C)cc2NC(=O)C2CC(=O)N(c3ccc(C)c(C)c3)C2)n1 (stereo not drawn) | active
* O=C(CCc1ccc(O)cc1)N1CCOC(c2ccc(Cl)cc2)C1 (stereo not drawn) | inactive
* Cc1ccc(C)c2c3c([nH]c12)-c1nonc1CC3 | inactive
* CN(C)C=Nc1nc(-c2ccccc2)c(-c2ccccc2)s1 | inactive
* Cn1nnnc1SCc1nc(-c2cccc(C(F)(F)F)c2)no1 | inactive
* Cc1ccc(C)n1-n1c(C)nc2scc(-c3cccs3)c2c1=O | inactive
* FC(F)(F)c1cccc(-c2nnn(Cc3ncc(-c4ccccc4)o3)n2)c1 | active
* Cn1nccc1CNC(=O)c1ccc(COc2cc(Cl)ccc2Cl)o1 | inactive
* O=S(=O)(Nc1nc2ccccc2nc1Nc1ccccc1)c1ccc(Br)s1 | active
* CN(C)c1c(Cl)cccc1NC(=O)NCc1ccoc1 | inactive
* Fc1ccc(C2C=C(c3cccs3)Nc3nnnn32)cc1 (stereo not drawn) | active
* CN(Cc1ccc(Cl)s1)S(=O)(=O)c1ccc(Cl)cc1 | active
* CCc1cc(=O)[nH]c(-n2nc(C)cc2NC(=O)C2CC(=O)N(c3ccccc3)C2)n1 (stereo not drawn) | active
* FC(F)Oc1ccc(C2C=C(c3ccccc3)Nc3nnnn32)cc1 (stereo not drawn) | inactive
* O=S(=O)(Nc1nc2ccccc2nc1Nc1ccc2c(c1)OCO2)c1cccc2nsnc12 | inactive
* CCN1CCN(C(C)CNc2nc3ccccc3s2)CC1 (stereo not drawn) | inactive
* CC(C)CNC(=O)C(=O)NCCCc1ccc(N(C)C)cc1 | inactive
* CCc1ccc(S(=O)(=O)Nc2cccc(-c3nc4cccnc4s3)c2C)s1 | active
* O=C(Nc1nccs1)c1ccc(COc2ccc(F)cc2)o1 | inactive

----------
- ASSAY PROTOCOL: Mycobacterium tuberculosis growth inhibition, primary screen (AID 1259343)
- RUN PARAMETERS: at 10 µM
The whole screen tested about 6,200 compounds, of which about 2,900 (47%) were called active. Cut-off read from the data, not from the text of the source: active = inhibition above about 50%; inactive = the rest. The set was probably picked from earlier hits. This is one part of the list.
Outcomes: T = active, F = inactive

- Cc1cc(=O)[nH]c(-n2nc(C3CC3)cc2NC(=O)C(C)(C)Oc2ccc(Cl)cc2)n1: T
- CCC1CCc2sc(C(=O)N=c3sccn3C)cc2C1 (centres undefined): F
- COc1ccc(Nc2nc3cc(Cl)ccc3o2)cc1Cl: F
- CC(Oc1ccc(Cl)cc1Cl)c1nc(-c2ccncc2)no1 (centres undefined): F
- CC(C)(C)C1CCc2sc(C(=O)O)cc2C1 (centres undefined): F
- O=S(=O)(CCSc1ccccn1)c1nc2ccccc2s1: T
- Cc1cc(C)c(S(=O)(=O)Nc2nc(C(F)(F)F)cs2)c(C)c1: T
- CCCc1cc(=O)[nH]c(-n2nc(C)cc2NC(=O)C2c3ccccc3Oc3ccccc32)n1: T
- CCCN(CCC)C(=O)c1nn(-c2ccccn2)c2nccc(-c3cccs3)c12: F
- Cc1cc(=O)[nH]c(-n2nc(C)cc2NC(=O)C2c3ccccc3Oc3ccccc32)n1: T
- CC(=O)C1=C(O)CC(c2ccccc2)SC1=Nc1ccccc1 (centres undefined): T
- Cc1cc(C)c(S(=O)(=O)NC(C)c2ccccc2)c(C)c1 (centres undefined): F
- CN(Cc1ccccc1C(F)(F)F)c1ncc(C(N)=O)cc1Cl: F
- CC(C)(C)C(=O)Nc1nc(-c2cccc(Br)c2)cs1: T
- Oc1ccc(Oc2ncc(Cl)cc2Cl)cc1: F
- Cc1cc(C(=O)NCCc2ccccc2)n2nc(-c3ccccc3)cc2n1: T
- O=C(O)c1cc(-c2ccccc2F)nc2cc(-c3ccc(Cl)cc3)nn12: T
- CN(C)C(=O)N1CCN(c2cc(-c3ccccc3)c3ccccc3n2)CC1: F
- O=C(NN=Cc1ccc(O)cc1)c1cc(-c2ccc(Cl)cc2Cl)n[nH]1: T
- O=C(NN=Cc1ccc(O)cc1)c1cc(C23CC4CC(CC(C4)C2)C3)[nH]n1: F
- N#CC(=Cc1ccncc1)c1nnc2n1CCCCC2: F
- CN(C)C(=O)CSCC(=O)O: F
- COc1ccc(NC(C)c2nc(C)no2)cc1Cl (centres undefined): T
- CCc1cc(=O)[nH]c(-n2nc(C)cc2NC(=O)C2c3ccccc3Oc3ccccc32)n1: T

Data provenance: PubChem BioAssay AID1259343
